# measured_on: T1, human EphA4 (binding to human Ephrin A5) (Homo sapiens, UniProt P54764)
# T1 construct: made in house; not restated for the human SEAP-His protein
# assay_remarks: Human EphA4-human ligand binding inhibition ELISA of humanized antibodies (biotinylated Ephrin A5-Fc)
# condition_details: biotinylated human Ephrin A5-Fc 0.7 nM
recorded_endpoint: IC50 (nM)
Give the quantity in nM, number only.

Q: Give its IC50 value. Item: 77 (antibody, V domains shown, synthetic humanized antibody heavy chain variable region sequence; synthetic humanized antibody light chain variable region sequence) VH: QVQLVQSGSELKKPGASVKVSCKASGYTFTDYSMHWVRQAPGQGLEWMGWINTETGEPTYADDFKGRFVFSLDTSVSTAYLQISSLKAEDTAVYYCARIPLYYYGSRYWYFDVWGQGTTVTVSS VL: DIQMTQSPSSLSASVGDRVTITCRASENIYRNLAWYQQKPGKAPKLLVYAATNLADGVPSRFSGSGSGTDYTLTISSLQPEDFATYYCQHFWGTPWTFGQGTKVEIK
Ans: 3.5
